System: MEG-01 (Chronic Myelogenous Leukemia);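 also: after 72 h of two-drug dosing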
Assay: Bliss excess, mean over the matrix (fraction); higher = more synergy
Examples of compounds with documented Bliss excess follow.
QUANTITY_NAME: Bliss excess

>>> test_result("CC1(C)CCC(CN2CCN(c3ccc(C(=O)NS(=O)(=O)c4ccc(NCC5CCOCC5)c([N+](=O)[O-])c4)c(Oc4cnc5[nH]ccc5c4)c3)CC2)=C(c2ccc(Cl)cc2)C1 [Venetoclax] + C=CCn1c(=O)c2cnc(Nc3ccc(N4CCN(C)CC4)cc3)nc2n1-c1cccc(C(C)(C)O)n1 [AZD1775] (first compound max 1 µM, partner max 1 µM)")
0.0146
>>> test_result("O=C(c1cc(Cc2n[nH]c(=O)c3ccccc23)ccc1F)N1CCN(C(=O)C2CC2)CC1 [Olaparib] + CN(CC[C@H](CSC1=CC=CC=C1)NC2=C(C=C(C=C2)S(=O)(=O)NC(=O)C3=CC=C(C=C3)N4CCC(CC4)[C@H](C5=CC=CC=C5C6=CC=C(C=C6)Cl)O)S(=O)(=O)C(F)(F)F)CCO [AZD4320] (first compound max 10 µM, 7x7, partner max 1 µM)")
-0.009
>>> test_result("N#Cc1cnc(Nc2cc(NC[C@H]3CNCCO3)c(C(F)(F)F)cn2)cn1 [SRA737] + C=CCn1c(=O)c2cnc(Nc3ccc(N4CCN(C)CC4)cc3)nc2n1-c1cccc(C(C)(C)O)n1 [AZD1775] (first compound max 10 µM, partner max 1 µM)")
-0.0314
>>> test_result("N#Cc1cnc(Nc2cc(NC[C@H]3CNCCO3)c(C(F)(F)F)cn2)cn1 [SRA737] + CCc1c2c(nc3ccc(O)cc13)-c1cc3c(c(=O)n1C2)COC(=O)[C@]3(O)CC [SN-38] (first compound max 10 µM, 7x7, partner max 0.3 µM)")
0.0468
>>> test_result("CC(=O)c1c(C)c2cnc(Nc3ccc(N4CCNCC4)cn3)nc2n(C2CCCC2)c1=O [Palbociclib] + Cn1cnc2c(F)c(Nc3ccc(Br)cc3Cl)c(C(=O)NOCCO)cc21 [Selumetinib] (first compound max 10 µM, 7x7, partner max 10 µM)")
0.0404
>>> test_result("Cc1c2c(nn1C)CSCc1cc(n(C)n1)CSc1cc(c3ccccc3c1)OCCCc1c(C(=O)O)n(C)c3c-2c(Cl)ccc13 [AZD5991] + Cc1cc2ncnn2cc1Nc1ncc2c(n1)n(C1CCOCC1)c(=O)n2C [AZD7648] (first compound max 1 µM, 7x7, partner max 10 µM)")
-0.0157
>>> test_result("C[C@@H](Nc1cc(F)cc(F)c1)c1cc(C(=O)N(C)C)cc2c(=O)cc(N3CCOCC3)oc12 [AZD8186] + C1CN(CCC1(C(=O)N[C@@H](CCO)C2=CC=C(C=C2)Cl)N)C3=NC=NC4=C3C=CN4 [AZD5363] (first compound max 10 µM, 7x7, partner max 10 µM)")
-0.0906
>>> test_result("CC(=O)Nc1cccc(-n2c(=O)n(C3CC3)c(=O)c3c(Nc4ccc(I)cc4F)n(C)c(=O)c(C)c32)c1 [Trametinib] + Cc1nc(-c2cn3c(n2)-c2ccc(-c4cnn(C(C)(C)C(N)=O)c4)cc2OCC3)n(C(C)C)n1 [Taselisib] (first compound max 1 µM, 7x7, partner max 10 µM)")
0.0324
>>> test_result("CC(=O)c1c(C)c2cnc(Nc3ccc(N4CCNCC4)cn3)nc2n(C2CCCC2)c1=O [Palbociclib] + CC1(C)CCC(CN2CCN(c3ccc(C(=O)NS(=O)(=O)c4ccc(NCC5CCOCC5)c([N+](=O)[O-])c4)c(Oc4cnc5[nH]ccc5c4)c3)CC2)=C(c2ccc(Cl)cc2)C1 [Venetoclax] (first compound max 10 µM, 7x7, partner max 1 µM)")
-0.0096
>>> test_result("CN(CCO)CC[C@H](CSc1ccccc1)Nc1ccc(S(=O)(=O)NC(=O)c2ccc(N3CCC([C@@H](O)c4ccccc4-c4ccc(Cl)cc4)CC3)cc2)cc1S(=O)(=O)C(F)(F)F [AZD4320] + CS(=O)(=O)CCNCc1ccc(-c2ccc3ncnc(Nc4ccc(OCc5cccc(F)c5)c(Cl)c4)c3c2)o1 [Lapatinib] (first compound max 1 µM, 7x7, partner max 10 µM)")
0.103
>>> test_result("CN(CCO)CC[C@H](CSc1ccccc1)Nc1ccc(S(=O)(=O)NC(=O)c2ccc(N3CCC([C@@H](O)c4ccccc4-c4ccc(Cl)cc4)CC3)cc2)cc1S(=O)(=O)C(F)(F)F [AZD4320] + Cc1cc2ncnn2cc1Nc1ncc2c(n1)n(C1CCOCC1)c(=O)n2C [AZD7648] (first compound max 1 µM, 7x7, partner max 10 µM)")
0.0304
>>> test_result("Cc1cc2ncnn2cc1Nc1ncc2c(n1)n(C1CCOCC1)c(=O)n2C [AZD7648] + O=C(c1cc(Cc2n[nH]c(=O)c3ccccc23)ccc1F)N1CCN(C(=O)C2CC2)CC1 [Olaparib] (first compound max 10 µM, 7x7, partner max 10 µM)")
-0.0086
>>> test_result("CN(C)CCCOc1ccc(-c2ccc3ncc4c(c3c2)n(C2CCOCC2)c(=O)n4C)cn1 [AZD0156] + C=CCn1c(=O)c2cnc(Nc3ccc(N4CCN(C)CC4)cc3)nc2n1-c1cccc(C(C)(C)O)n1 [AZD1775] (first compound max 1 µM, partner max 1 µM)")
0.0032
>>> test_result("CN(C)CCCOc1ccc(-c2ccc3ncc4c(c3c2)n(C2CCOCC2)c(=O)n4C)cn1 [AZD0156] + CCN(CCO)CCCOc1ccc2c(Nc3cc(CC(=O)Nc4cccc(F)c4)[nH]n3)ncnc2c1 [AZD2811] (first compound max 1 µM, 7x7, partner max 1 µM)")
-0.0347
